The origin of these recorded values is PubChem BioAssay (NCI).

Tested on: MDA-MB-468 breast
Assay: NCI tumour cell line growth inhibition, 48 h
property.label: TGI (µM)
Respond numerically; units are µM and should not be typed.

Give the measured TGI of CCN1C(=O)N(CC)C2C1NN=c1s/c(=C\c3ccc([N+](=O)[O-])cc3)c(=O)n12 (stereo not drawn) .
7.14

Give the measured TGI of COc1ccc(-c2nc3cc(C)ccc3n2CC(=O)N=Nc2c(O)[nH]c3ccc(Br)cc23)cc1 .
4.41

* * *

Tested on: MDA-MB-468 breast
Experiment: NCI tumour cell line growth inhibition, 48 h; in the data active means GI50 below about 0.43 µM; inactive means the rest
Pick from active, inactive when you respond.

Illustrative cases are given below, each with its answer.
{"compound": "CC1OC(OC2C(OC3CCC4(C)C(CCC5(C)C4CC=C4C6CC(C)(C)CCC6(CO)C(O)CC45C)C3(C)C)OC(C(=O)O)C(OC3OC(COC4OC(CO)C(O)C(O)C4O)C(O)C(O)C3O)C2O)C(O)C(O)C1O (configuration not stated)", "answer.label": "inactive"}
{"compound": "C#CCSc1nnnn1-c1ccc(Br)c(C)c1", "answer.label": "inactive"}
{"compound": "O=[N+]([O-])c1ccc([I+]c2ccccc2)cc1", "answer.label": "inactive"}
{"compound": "COc1cc(/C=C/C(=O)c2ccc(S(=O)(=O)NCCNc3nc(Nc4ccc(F)cc4)nc(N(C)C)n3)cc2)cc(OC)c1OC", "answer.label": "inactive"}
{"compound": "Cn1cccc1C1CC(=O)N(CCC[Se]C#N)C1=O (configuration not stated)", "answer.label": "inactive"}

Hello, I am checking results. What call was entered for COc1cc2nc(-c3ccc(Cl)cc3)cc(OCCCN3CCC(O)CC3)c2cc1OC ?
inactive

Hello, I am checking results. What call was entered for O=C(/C=C/c1cccnc1)/C=C/c1cccnc1 ?
inactive

Hello, I am checking results. What call was entered for c1ccc(COc2ccc(Nc3ncnc4ccc(-c5ccco5)cc34)cc2)cc1 ?
inactive

Hello, I am checking results. What call was entered for Oc1ccc(-c2nc(-c3ccc(F)cc3)c(-c3ccncc3)[nH]2)cc1 ?
inactive

Hello, I am checking results. What call was entered for CCN(CC)c1ccc(/C=C/C2=[N+](C)c3ccccc3C2(C)C)cc1 ?
active

Hello, I am checking results. What call was entered for Cn1cc(-c2ccc3c(c2)ncn3-c2ccc(CC(=O)Nc3cc(C(C)(C)C)on3)cc2)cn1 ?
inactive

Hello, I am checking results. What call was entered for Cn1cc(-c2nonc2-c2cn(C)c3ccc(Br)cc23)c2ccccc21 ?
inactive

Hello, I am checking results. What call was entered for C[C@@H](Oc1cc(-n2cnc3ccc(OCC4CCN(C)CC4)cc32)sc1C(N)=O)c1ccccc1C(F)(F)F ?
active

Hello, I am checking results. What call was entered for CCOC(=O)/C(=C/c1c(-c2ccccc2)[nH]c2ccccc12)C(=O)c1ccc(Cl)cc1 ?
inactive

Hello, I am checking results. What call was entered for C=C1CCC2C3(C)COC(c4cccc(Cl)c4)OC3CCC2(C)C1/C=C/C1=CCOC1=O (configuration not stated) ?
inactive

Hello, I am checking results. What call was entered for c1ccc(CNc2nc(Nc3ccc(-c4nc5ccccc5[nH]4)cc3)c3cn[nH]c3n2)cc1 ?
inactive

Hello, I am checking results. What call was entered for CC1(C)CCC(CN2CCN(c3ccc(C(=O)NS(=O)(=O)c4ccc(NCC5CCOCC5)c([N+](=O)[O-])c4)c(Oc4cnc5[nH]ccc5c4)c3)CC2)=C(c2ccc(Cl)cc2)C1 ?
inactive
